biological target: Human GLP-1 receptor (Homo sapiens); construct: The full-length cDNA was cloned in pcDNA3.1(+); expressed in transfected cells; type: cell-based; conditions: 10 nM test compound
Sequence (P43220 24-463): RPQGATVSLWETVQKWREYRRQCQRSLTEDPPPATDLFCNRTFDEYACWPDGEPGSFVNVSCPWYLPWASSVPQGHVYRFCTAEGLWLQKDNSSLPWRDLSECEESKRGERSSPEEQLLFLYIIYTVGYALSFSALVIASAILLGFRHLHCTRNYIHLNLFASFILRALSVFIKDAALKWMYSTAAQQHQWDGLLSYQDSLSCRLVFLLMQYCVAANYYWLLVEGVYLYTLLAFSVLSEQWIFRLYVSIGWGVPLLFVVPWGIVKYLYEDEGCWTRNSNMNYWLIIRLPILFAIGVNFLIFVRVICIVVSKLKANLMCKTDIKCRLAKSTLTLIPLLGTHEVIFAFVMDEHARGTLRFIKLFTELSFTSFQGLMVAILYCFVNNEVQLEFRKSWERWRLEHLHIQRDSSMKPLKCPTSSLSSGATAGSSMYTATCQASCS
# Human GLP-1 R activity (cAMP release), % activity with respect to control listing for each entry below
Readout label: Human GLP-1 R activity (cAMP release), % activity with respect to control

compound="CCc1cc(OC)ccc1-c1ccc(CC(NC(=O)[C@H](CC(=O)O)NC(=O)[C@H](CO)NC(=O)[C@@H](NC(=O)[C@H](Cc2ccccc2)NC(=O)[C@@H](NC(=O)CNC(=O)[C@H](CCC(N)=O)NC(=O)C2(NC(=O)[C@@H](N)Cc3c[nH]cn3)CC2)[C@@H](C)O)[C@@H](C)O)C(=O)NC(Cc2ccc(-c3ccccc3C)nc2)C(N)=O)cc1 (single isomer, unassigned) [compound 18]" reading="99 ± 0.09%"
compound="CCc1cc(OC)ccc1-c1ccc(CC(NC(=O)[C@H](CC(=O)O)NC(=O)[C@H](CO)NC(=O)[C@@H](NC(=O)C(C)(Cc2ccccc2F)NC(=O)[C@@H](NC(=O)CNC(=O)[C@H](CCC(N)=O)NC(=O)C2(NC(=O)[C@@H](N)Cc3c[nH]cn3)CC2)[C@@H](C)O)[C@@H](C)O)C(=O)NC(Cc2ccc(-c3ccccc3C)cc2)C(N)=O)cc1 (single isomer, unassigned) [compound 33]" reading="99 ± 0.13%"
compound="CCc1cc(OC)ccc1-c1ccc(CC(NC(=O)[C@H](CC(=O)O)NC(=O)[C@H](CO)NC(=O)[C@@H](NC(=O)[C@H](Cc2ccccc2)NC(=O)[C@@H](NC(=O)CNC(=O)[C@H](CCC(N)=O)NC(=O)C2(NC(=O)[C@@H](N)Cc3c[nH]cn3)CC2)[C@@H](C)O)[C@@H](C)O)C(=O)NC(Cc2ccc(-c3ccccc3F)cc2)C(N)=O)cc1 (single isomer, unassigned) [compound 19]" reading="99 ± 0.46%"
compound="CCc1cc(OC)ccc1-c1ccc(CC(NC(=O)[C@H](CC(=O)O)NC(=O)[C@H](CO)NC(=O)[C@@H](NC(=O)C(C)(Cc2ccccc2F)NC(=O)[C@@H](NC(=O)CNC(=O)[C@H](CCC(N)=O)NC(=O)C(C)(C)NC(=O)[C@@H](N)Cc2c[nH]cn2)[C@@H](C)O)[C@@H](C)O)C(=O)NC(Cc2ccc(-c3ccccc3C)cc2)C(N)=O)cc1 (single isomer, unassigned) [compound 29]" reading="99 ± 0.15%"
compound="CCc1cc(OC)ccc1-c1ccc(CC(NC(=O)[C@H](CC(=O)O)NC(=O)[C@H](CO)NC(=O)[C@@H](NC(=O)C(C)(Cc2ccccc2F)NC(=O)[C@@H](NC(=O)CNC(=O)[C@H](CCC(N)=O)NC(=O)C2(NC(=O)[C@@H](N)Cc3c[nH]cn3)CC2)[C@@H](C)O)[C@@H](C)O)C(=O)NC(Cc2ccc(-c3ccccc3C)nc2)C(N)=O)cc1 (single isomer, unassigned) [compound 34]" reading="99 ± 0.08%"

----------
# % degradation in 24 h when incubated with simulated intestinal fluid listing for each entry below
assay: Stability in simulated intestinal fluid; format: in vitro ADME; conditions: 2 μM, 37° C., 24 h, pH 7.5
Readout label: % degradation in 24 h when incubated with simulated intestinal fluid (%)

compound="CCc1cc(OC)ccc1-c1ccc(CC(NC(=O)[C@H](CC(=O)O)NC(=O)[C@H](CO)NC(=O)[C@@H](NC(=O)C(C)(Cc2ccccc2F)NC(=O)[C@@H](NC(=O)CNC(=O)[C@H](CCC(N)=O)NC(=O)C2(NC(=O)[C@@H](N)Cc3c[nH]cn3)CC2)[C@@H](C)O)[C@@H](C)O)C(=O)NC(Cc2ccc(-c3ccccc3C)nc2)C(N)=O)cc1 (single isomer, unassigned)" reading=00
compound="CCc1cc(OC)ccc1-c1ccc(CC(NC(=O)[C@H](CC(=O)O)NC(=O)[C@H](CO)NC(=O)[C@@H](NC(=O)[C@H](Cc2ccccc2)NC(=O)[C@@H](NC(=O)CNC(=O)[C@H](CCC(N)=O)NC(=O)[C@H](C)NC(=O)[C@@H](N)Cc2c[nH]cn2)[C@@H](C)O)[C@@H](C)O)C(=O)NC(Cc2ccc(-c3ccccc3C)cc2)C(N)=O)cc1 (single isomer, unassigned)" reading=100
compound="CCc1cc(OC)ccc1-c1ccc(CC(NC(=O)[C@H](CC(=O)O)NC(=O)[C@H](CO)NC(=O)[C@@H](NC(=O)C(C)(Cc2ccccc2F)NC(=O)[C@@H](NC(=O)CNC(=O)[C@H](CCC(N)=O)NC(=O)[C@H](CO)NC(=O)[C@@H](N)Cc2c[nH]cn2)[C@@H](C)O)[C@@H](C)O)C(=O)NC(Cc2ccc(-c3ccccc3C)cc2)C(N)=O)cc1 (single isomer, unassigned)" reading=55
compound="CCc1cc(OC)ccc1-c1ccc(CC(NC(=O)[C@H](CC(=O)O)NC(=O)[C@H](CO)NC(=O)[C@@H](NC(=O)C(C)(Cc2ccccc2F)NC(=O)[C@@H](NC(=O)CNC(=O)[C@H](CCC(N)=O)NC(=O)C2(NC(=O)[C@@H](N)Cc3c[nH]cn3)CC2)[C@@H](C)O)[C@@H](C)O)C(=O)NC(Cc2ccc(-c3ccccc3F)cc2)C(N)=O)cc1 (single isomer, unassigned)" reading=00
compound="CCc1cc(OC)ccc1-c1ccc(CC(NC(=O)[C@H](CC(=O)O)NC(=O)[C@H](CO)NC(=O)[C@@H](NC(=O)[C@H](Cc2ccccc2)NC(=O)[C@@H](NC(=O)CNC(=O)[C@H](CCC(N)=O)NC(=O)[C@H](C)NC(=O)[C@@H](N)Cc2c[nH]cn2)[C@@H](C)O)[C@@H](C)O)C(=O)NC(Cc2ccc(-c3ccccc3C(F)(F)F)cc2)C(N)=O)cc1 (single isomer, unassigned)" reading=100
compound="CCc1cc(OC)ccc1-c1ccc(CC(NC(=O)[C@H](CC(=O)O)NC(=O)[C@H](CO)NC(=O)[C@@H](NC(=O)[C@H](Cc2ccccc2)NC(=O)[C@@H](NC(=O)CNC(=O)[C@H](CCC(N)=O)NC(=O)C2(NC(=O)[C@@H](N)Cc3c[nH]cn3)CC2)[C@@H](C)O)[C@@H](C)O)C(=O)NC(Cc2ccc(-c3ccccc3F)cc2)C(N)=O)cc1 (single isomer, unassigned)" reading=00
